Reference source: patent US9617267B2

Molecular target: B-Raf V600E (Homo sapiens (Human), UniProt P15056, V600E)
Sequence (P15056 whole entry V600E): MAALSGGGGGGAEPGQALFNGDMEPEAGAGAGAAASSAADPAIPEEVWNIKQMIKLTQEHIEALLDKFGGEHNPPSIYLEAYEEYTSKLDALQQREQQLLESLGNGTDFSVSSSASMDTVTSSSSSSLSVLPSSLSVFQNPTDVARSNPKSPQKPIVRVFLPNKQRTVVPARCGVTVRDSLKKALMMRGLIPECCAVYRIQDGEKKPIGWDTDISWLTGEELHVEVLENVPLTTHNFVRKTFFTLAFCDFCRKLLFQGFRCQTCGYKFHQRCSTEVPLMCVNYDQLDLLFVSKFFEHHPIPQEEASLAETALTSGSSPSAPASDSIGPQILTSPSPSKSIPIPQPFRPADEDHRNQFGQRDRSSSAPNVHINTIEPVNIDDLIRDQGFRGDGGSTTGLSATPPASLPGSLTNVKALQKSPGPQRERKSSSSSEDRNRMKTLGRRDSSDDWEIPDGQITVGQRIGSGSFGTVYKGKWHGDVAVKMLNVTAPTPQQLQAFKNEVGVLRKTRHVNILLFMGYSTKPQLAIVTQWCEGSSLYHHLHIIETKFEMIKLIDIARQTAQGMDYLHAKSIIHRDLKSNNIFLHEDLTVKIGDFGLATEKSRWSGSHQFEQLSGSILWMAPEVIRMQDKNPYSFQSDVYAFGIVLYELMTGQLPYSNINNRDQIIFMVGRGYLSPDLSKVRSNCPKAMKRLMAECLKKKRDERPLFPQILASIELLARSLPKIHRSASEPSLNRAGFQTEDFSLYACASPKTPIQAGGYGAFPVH
Test: B-Raf V600E kinase activity biochemical assay (AlphaScreen, biotin-MEK1 phosphorylation)
Conditions: ratio of IC50 B-Raf V600E / c-Raf-1

[
  {
    "Given smiles": "CCCS(=O)(=O)Nc1ccc(F)c(C(=O)c2c[nH]c3ncc(C#N)c(Cl)c23)c1F",
    "Biochemical activity ratio V600E/C": "0.1-10"
  },
  {
    "Given smiles": "CN1CCC(Nc2ncnc3[nH]cc(C(=O)c4c(F)ccc(NS(=O)(=O)c5ccc(C(F)(F)F)cc5)c4F)c23)CC1",
    "Biochemical activity ratio V600E/C": ">10"
  },
  {
    "Given smiles": "CNc1ncnc2[nH]cc(C(=O)c3c(F)ccc(NS(=O)(=O)c4ccc(C(F)(F)F)cc4)c3F)c12",
    "Biochemical activity ratio V600E/C": ">10"
  },
  {
    "Given smiles": "CCCS(=O)(=O)Nc1ccc(F)c(C(=O)c2c[nH]c3ncnc(NC4CCOCC4)c23)c1F",
    "Biochemical activity ratio V600E/C": ">10"
  },
  {
    "Given smiles": "CCNc1ncnc2[nH]cc(C(=O)c3c(F)ccc(NS(=O)(=O)c4ccc(C(F)(F)F)cc4)c3F)c12",
    "Biochemical activity ratio V600E/C": ">10"
  },
  {
    "Given smiles": "CCCNc1ncnc2[nH]cc(C(=O)c3c(F)ccc(NS(=O)(=O)c4ccc(C(F)(F)F)cc4)c3F)c12",
    "Biochemical activity ratio V600E/C": ">10"
  },
  {
    "Given smiles": "CCCS(=O)(=O)Nc1ccc(F)c(C(=O)c2c[nH]c3ncc(Cl)c(OC)c23)c1F",
    "Biochemical activity ratio V600E/C": "0.1-10"
  }
]

----------
Target: B-Raf (Homo sapiens (Human), UniProt P15056)
Sequence (P15056 whole entry): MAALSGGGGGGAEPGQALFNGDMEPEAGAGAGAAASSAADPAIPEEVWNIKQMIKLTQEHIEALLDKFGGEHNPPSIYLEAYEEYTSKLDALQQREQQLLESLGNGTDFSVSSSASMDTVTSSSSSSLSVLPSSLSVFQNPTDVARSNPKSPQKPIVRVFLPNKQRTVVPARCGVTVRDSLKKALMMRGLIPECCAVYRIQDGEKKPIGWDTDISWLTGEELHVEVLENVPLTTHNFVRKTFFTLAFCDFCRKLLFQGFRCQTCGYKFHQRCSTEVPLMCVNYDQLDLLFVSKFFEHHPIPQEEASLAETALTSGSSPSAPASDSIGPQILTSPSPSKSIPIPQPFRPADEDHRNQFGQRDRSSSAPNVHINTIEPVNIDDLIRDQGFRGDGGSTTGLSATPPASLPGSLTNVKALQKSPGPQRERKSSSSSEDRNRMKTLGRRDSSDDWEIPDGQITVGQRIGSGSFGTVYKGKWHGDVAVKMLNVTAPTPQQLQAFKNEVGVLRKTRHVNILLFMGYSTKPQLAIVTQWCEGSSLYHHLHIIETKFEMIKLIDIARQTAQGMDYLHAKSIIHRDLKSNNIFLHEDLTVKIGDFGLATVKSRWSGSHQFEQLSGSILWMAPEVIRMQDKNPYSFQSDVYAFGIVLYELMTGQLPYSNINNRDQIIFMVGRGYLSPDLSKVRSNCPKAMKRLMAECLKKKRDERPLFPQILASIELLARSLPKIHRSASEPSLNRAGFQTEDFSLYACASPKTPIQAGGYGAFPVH
Assay: B-Raf kinase activity biochemical assay (AlphaScreen, biotin-MEK1 phosphorylation)
Conditions: B-Raf
Description: Compounds to be tested are diluted in dimethyl sulfoxide to a concentration of 0.1 mM. These are serially diluted 15 μL into 30 μL of dimethyl sulfoxide seven times in 96 well plates for a total of 8 dilution points, and for each dilution point 1 μL is added to a well of an assay plate. […] The reaction is started with addition of 10 μL of 200 μM ATP (i.e. final 100 μM ATP). […] The plates are incubated for 3 hours at room temperature and read on Envision reader (Perkin Elmer). […]

[
  {
    "Given smiles": "CCCS(=O)(=O)Nc1ccc(F)c(C(=O)c2c[nH]c3ncnc(NC4COC4)c23)c1F",
    "Study system": "B-Raf (Homo sapiens (Human), UniProt P15056)",
    "IC50": "< 0.1 µM"
  },
  {
    "Given smiles": "O=C(c1c(F)ccc(NS(=O)(=O)c2ccc(C(F)(F)F)cc2)c1F)c1c[nH]c2nccc(C(F)(F)F)c12",
    "Study system": "B-Raf (Homo sapiens (Human), UniProt P15056)",
    "IC50": "> 0.1 µM"
  },
  {
    "Given smiles": "CCCc1ccc(S(=O)(=O)Nc2ccc(F)c(C(=O)c3c[nH]c4ncnc(OC)c34)c2F)cc1",
    "Study system": "B-Raf (Homo sapiens (Human), UniProt P15056)",
    "IC50": "> 0.1 µM"
  },
  {
    "Given smiles": "COc1ccc(S(=O)(=O)Nc2ccc(F)c(C(=O)c3c[nH]c4ncnc(OC)c34)c2F)cn1",
    "Study system": "B-Raf (Homo sapiens (Human), UniProt P15056)",
    "IC50": "> 0.1 µM"
  },
  {
    "Given smiles": "CCCS(=O)(=O)Nc1ccc(F)c(C(=O)c2c[nH]c3ncc(OC)c(Cl)c23)c1F",
    "Study system": "B-Raf (Homo sapiens (Human), UniProt P15056)",
    "IC50": "< 0.1 µM"
  },
  {
    "Given smiles": "O=C(c1c(F)ccc(NS(=O)(=O)c2ccc(C(F)(F)F)cc2)c1F)c1c[nH]c2ncnc(NC3CC3)c12",
    "Study system": "B-Raf (Homo sapiens (Human), UniProt P15056)",
    "IC50": "< 0.1 µM"
  },
  {
    "Given smiles": "CN1CCC(Nc2ncnc3[nH]cc(C(=O)c4c(F)ccc(NS(=O)(=O)c5ccc(C(F)(F)F)cc5)c4F)c23)CC1",
    "Study system": "B-Raf (Homo sapiens (Human), UniProt P15056)",
    "IC50": "< 0.1 µM"
  },
  {
    "Given smiles": "O=C(c1c(F)ccc(NS(=O)(=O)c2ccc(C(F)(F)F)cc2)c1F)c1c[nH]c2ncnc(NC3COC3)c12",
    "Study system": "B-Raf (Homo sapiens (Human), UniProt P15056)",
    "IC50": "< 0.1 µM"
  },
  {
    "Given smiles": "COc1ccc(S(=O)(=O)Nc2ccc(F)c(C(=O)c3c[nH]c4ncnc(C)c34)c2F)cc1F",
    "Study system": "B-Raf (Homo sapiens (Human), UniProt P15056)",
    "IC50": "> 0.1 µM"
  }
]
